- assay protocol: solvent given as SMILES
- condition summary: in CCCCCC
Would you mind telling me the reported fluorescence lifetime of each entry?
// return numeric value only (unit: ns, not printed)

-- ask Suppose we examine the compound CN(C)c1ccc(C2=Cc3cc(Cl)nc[n+]3[B-](F)(F)O2)cc1 ; what fluorescence lifetime value has been reported?
-- reply 1.9

-- ask So what does the record say about fluorescence lifetime for O=C1OC(=O)c2ccc(N(c3ccccc3)c3ccc4ccc5cccc6ccc3c4c56)c3cccc1c23 ?
-- reply 4.36

-- ask # lookup: fluorescence lifetime of CCC(=O)c1ccc2cc(N(C)C)ccc2c1
-- reply 0.29

-- ask Which fluorescence lifetime value is on record for CCCCCCCCN1c2ccc(C#Cc3ccc(OC)cc3)cc2Sc2cc(C=O)ccc21 ?
-- reply 6.46

-- ask Requested field: fluorescence lifetime. Item: Nc1ccc2c(C(F)(F)F)cc(=O)oc2c1
-- reply 0.854

-- ask Request the reported fluorescence lifetime associated with CNc1cccc2c1C(=O)c1ccccc1C2=O
-- reply 0.451

-- ask For the compound shown here, C#CCN1C(=O)/C(=C/c2cc(OC(C)C)ccc2OC(C)C)N=C1C , give the reported fluorescence lifetime.
-- reply 0.89

-- ask State the recorded fluorescence lifetime for this entry: Cn1cccc1-c1cc(C#N)ccc1C#N
-- reply 7.5

-- ask Reported fluorescence lifetime for CCC1(CC)c2cc(B(c3c(C)cc(C)cc3C)c3c(C)cc(C)cc3C)ccc2-c2ccc(N(c3ccccc3)c3ccccc3)cc21 : what is it?
-- reply 1.6

-- ask Any idea what its fluorescence lifetime is? The compound is CCN1C(=O)C(C2C(=O)c3c4ccccc4cc4cc5ccccc5c2c34)SC1=S (stereo unspecified)
-- reply 12.8

-- ask Reported fluorescence lifetime, compound N#Cc1ccc(-c2ccc3c(c2)c2cc(-c4ccc(C#N)cc4)ccc2c2c3nc(-c3ccc(-c4ccc(N(c5ccccc5)c5ccccc5)cc4)cc3)n2-c2ccccc2)cc1 : ____
-- reply 1.04
